Test Method Notes: chemical genetic growth profiling, strain panel (AID 1159580);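 also: tested at 20 µM; growth read once vehicle control cultures reached saturation at 30 °C; 1 = growth at the plate median or of vehicle wells; lower values mean less growth of the strain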
Stated Conditions: S. cerevisiae deletion strains, growth OD, locus YJL168C, strain set2, stronger effect = lower value
Out of some 5,500 compounds screened, about 2,000 (36%) were called active. About 18% were inconclusive and are not listed. This is one part of the list.
Readout Kind: normalized growth
The answer should be written as a number, with no unit following it.

Give a short answer stating reported normalized growth for CC1(C)C2CC(=O)[C@]3(C)C(CC[C@@]4(C)[C@H](c5ccoc5)OC(=O)[C@H]5O[C@]543)[C@@]2(C)C=C[C@@H]1O (stereo not given in full) . 0.993

Give a short answer stating reported normalized growth for CC(=O)N[C@@H](CS)C(=O)O . 1.01

Give a short answer stating reported normalized growth for CC[C@H](C)C(=O)O[C@H]1CCC=C2C=C[C@H](C)C(CCC3C[C@@H](O)CC(=O)O3)[C@H]21 (stereo not given in full) . 0.975

Give a short answer stating reported normalized growth for COc1c(OC)c2occc2c2oc(=O)ccc12 . 0.977

Give a short answer stating reported normalized growth for COc1c2ccoc2c(OC)c2oc(=O)ccc12 . 0.989
